B1: C8orf76 (parent)
chain: LYLQLAICSSLQNLEKTIFCLQKL

Variants of: B1
Assay: protein stability index of a GFP-peptide fusion (GPS, HEK-293T) (PSI 1-6); higher = more stable;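 further: lentivirally expressed fusions sorted by FACS into six bins by GFP to DsRed ratio, PSI derived from sequencing read proportions per bin multiplied by bin number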
Conditions: c terminus: a fixed tail appended
Readout Name: protein stability index

Examples with answers:
1) I7M :: 2.24
2) T17C :: 2.55

Quick one: give me protein stability index for each item below, same order please.
1. Q22I
2. L3R
3. C20D
4. L24K
5. I18Q
6. S9I
7. K23R
8. K16Q

Key:
1.46
4.15
2.93
3.43
2.44
2.34
3.49
3.17
